assay-text: Pharmacokinetic assay in Wistar rats, oral
test-settings: rat, in vivo, 30 mg/kg
Binary call on half-life: Condition met from 4 h upward, Condition not met beneath that.

Input: # check: half-life of [2H]C([2H])([2H])O[C@@H]1CCN(C[C@H](c2cnc(NC(=O)[C@@H](NC(=O)c3ccnn3C([2H])([2H])C([2H])([2H])[2H])[C@H]3CC[C@H](C)CC3)s2)N2CC(F)(F)CCC2=O)C[C@@H]1F is greater than or equal to 4 h
Output: Condition not met

Input: State whether the measured half-life reaches 4 h, counting equality as reaching it, for [2H]C([2H])([2H])C([2H])([2H])n1nccc1C(=O)NC(C(=O)Nc1ncc(C(COC)n2cc(Cl)ccc2=O)s1)C1CCC(C)CC1 (centres unmarked)
Output: Condition met

Input: # bool: half-life of [2H]C([2H])([2H])OC1CCN(CC(c2cnc(NC(=O)C(NC(=O)c3ccnn3C([2H])([2H])C([2H])([2H])[2H])C3CCC(C)CC3)s2)N2CC(F)(F)CCC2=O)CC1F (centres unmarked) >= 4 h
Output: Condition not met

Input: Please check the record [2H]C([2H])([2H])C([2H])([2H])n1nccc1C(=O)N[C@H](C(=O)Nc1ncc([C@@H](CN2CCOC[C@@H]2C)N2CC(F)(F)CCC2=O)s1)[C@H]1CC[C@H](C)CC1 and state if its half-life is at or above 4 h.
Output: Condition not met

Input: // inclusive: half-life at least 4 h? input: [2H]C([2H])([2H])C([2H])([2H])n1nccc1C(=O)NC(C(=O)Nc1ncc(C(CN2CCOCC2C)N2CC(F)(F)CCC2=O)s1)C1CCC(C)CC1 (centres unmarked)
Output: Condition not met

Input: Kindly determine if half-life recorded for [2H]C([2H])([2H])C([2H])([2H])n1nccc1C(=O)N[C@H](C(=O)Nc1ncc([C@@H](CN2CCC(C(F)F)CC2)N2CC(F)(F)CCC2=O)s1)[C@H]1CC[C@H](C)CC1 is above or exactly 4 h.
Output: Condition met

Input: Record [2H]C([2H])([2H])C([2H])([2H])n1nccc1C(=O)NC(C(=O)Nc1ncc(C(CN2CC(C)OCC2C)N2CC(F)(F)CCC2=O)s1)C1CCC(C)CC1 (centres unmarked) ; criterion: half-life no lower than 4 h. Met?
Output: Condition not met

Input: Form field: half-life at least 4 h? Entry: [2H]C([2H])([2H])C([2H])([2H])n1nccc1C(=O)N[C@H](C(=O)Nc1ncc([C@@H](CN2CCC(CF)CC2)N2CC(F)(F)CCC2=O)s1)[C@H]1CC[C@H](C)CC1
Output: Condition met
